Test system: SUM149PT spheroids with HUVEC/MSC, viability
assay-method-text: Anticancer human tumor SUM149PT cell line growth inhibition [GQUAD];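 further: spheroids exposed to drugs for seven days before readout; percent viability relative to DMSO vehicle control taken as 100%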
measurement-parameters: second compound 1 µM; first compound 1 µM; stronger effect = lower value
Text: DNA G-quadruplex Stabilizer Agents in Combinations in Complex Spheroids A high-throughput screen of multi-cell type tumor spheroids was designed to identify active combinations of DNA G-quadruplex stabilizer agents and targeted small molecules. […] Compounds. […] If the clinical Cmax for an agent had not been determined, the highest concentration tested was 10 microM. […]
measured-metric: viability, T/C (%)
Just the number in %, nothing appended.

Exercise: Given CCCS(=O)(=O)Nc1ccc(F)c(C(=O)c2c[nH]c3ncc(-c4ccc(Cl)cc4)cc23)c1F + CN(C)c1ccc(Nc2c3ccc(NC(=O)CCN4CCCC4)cc3nc3cc(NC(=O)CCN4CCCC4)ccc23)cc1 , report its viability, T/C on SUM149PT spheroids with HUVEC/MSC, viability.
Solution: 89.7

Exercise: Write down the reported viability, T/C (system: SUM149PT spheroids with HUVEC/MSC, viability) of O=C(NO)c1cnc(N2CCN(S(=O)(=O)c3ccc4ccccc4c3)CC2)nc1 + CN(C)c1ccc(Nc2c3ccc(NC(=O)CCN4CCCC4)cc3nc3cc(NC(=O)CCN4CCCC4)ccc23)cc1
Solution: 0.55

Exercise: Report viability, T/C under test system SUM149PT spheroids with HUVEC/MSC, viability for CC(C)(O)C1CCC(Nc2ccc3ncc(-c4cccc(C(F)(F)F)c4)n3n2)CC1 (stereo unspecified) + CN(C)c1ccc(Nc2c3ccc(NC(=O)CCN4CCCC4)cc3nc3cc(NC(=O)CCN4CCCC4)ccc23)cc1 .
Solution: 57.3

Exercise: Fill in viability, T/C for COc1ncnc(C2CC2)c1-c1ncc2cnn(Cc3ccc(-c4nc(C(F)(F)F)cn4C(C)C)cc3)c2n1 + CN(C)c1ccc(Nc2c3ccc(NC(=O)CCN4CCCC4)cc3nc3cc(NC(=O)CCN4CCCC4)ccc23)cc1 tested with SUM149PT spheroids with HUVEC/MSC, viability.
Solution: 67.9

Exercise: Give SUM149PT spheroids with HUVEC/MSC, viability viability, T/C for the following compound: Nc1ccn(C2OC(CO)C(O)C2(F)F)c(=O)n1 (stereo unspecified) + CN(C)c1ccc(Nc2c3ccc(NC(=O)CCN4CCCC4)cc3nc3cc(NC(=O)CCN4CCCC4)ccc23)cc1
Solution: 27.9

Exercise: # return viability, T/C of Cc1cccc(N(C)C(=O)C2C(O)CCN2c2nc(C)cc(C(F)(F)F)c2C#N)c1 (stereo unspecified) + Cc1cnc(CNC(=O)c2c(=O)c3ccc(N4CCCN(C)CC4)nc3n3c2sc2ccccc23)cn1 (system: SUM149PT spheroids with HUVEC/MSC, viability)
Solution: 45.4

Exercise: Print SUM149PT spheroids with HUVEC/MSC, viability viability, T/C for O=C(NO)c1cnc(N2CCN(S(=O)(=O)c3ccc4ccccc4c3)CC2)nc1 + Cc1cnc(CNC(=O)c2c(=O)c3ccc(N4CCCN(C)CC4)nc3n3c2sc2ccccc23)cn1 .
Solution: 1.85

Exercise: Report viability, T/C on SUM149PT spheroids with HUVEC/MSC, viability for this entry: CC1COCCN1c1cc(C2(S(C)(=N)=O)CC2)nc(-c2ccnc3[nH]ccc23)n1 (stereo unspecified) + CN(C)c1ccc(Nc2c3ccc(NC(=O)CCN4CCCC4)cc3nc3cc(NC(=O)CCN4CCCC4)ccc23)cc1
Solution: 69.5

Exercise: Please respond with reported viability, T/C (system SUM149PT spheroids with HUVEC/MSC, viability) for CC(C)n1c(=O)n(C)c2cnc3cc(F)c(-c4ccc(OCCCN5CCCCC5)nc4)cc3c21 + CN(C)c1ccc(Nc2c3ccc(NC(=O)CCN4CCCC4)cc3nc3cc(NC(=O)CCN4CCCC4)ccc23)cc1 .
Solution: 89.7

Exercise: Name the value of viability, T/C reported for CCCS(=O)(=O)Nc1ccc(F)c(C(=O)c2c[nH]c3ncc(-c4ccc(Cl)cc4)cc23)c1F + Cc1[nH]c2ccc(F)cc2c1-c1nc2c3cccnc3c3ncccc3c2[nH]1 when tested on SUM149PT spheroids with HUVEC/MSC, viability.
Solution: 105

Exercise: Print SUM149PT spheroids with HUVEC/MSC, viability viability, T/C for CC(C)n1c(=O)n(C)c2cnc3cc(F)c(-c4ccc(OCCCN5CCCCC5)nc4)cc3c21 + Cc1cnc(CNC(=O)c2c(=O)c3ccc(N4CCCN(C)CC4)nc3n3c2sc2ccccc23)cn1 .
Solution: 46.4
